- Test system: p-ERK in AGS cells (KRAS G12D mutation)
- experimentDescription: Cell p-ERK assay (HTRF, Advance ERK phospho-T202/Y204 kit)
- Type: cell-based, human
- conditionDescription: Homo sapiens, AGS, 3 h, read-out: AGS p-ERK IC50
- Procedure: […] AGS is an endogenous human gastric adenocarcinoma cell line containing the KRAS^G12D mutation, cultured in F12K+10% FBS medium. On the first day of the experiment, cells in the logarithmic growth phase were taken, digested with trypsin (containing EDTA), collected, and counted. […] The concentration of the compounds and corresponding cell p-ERK level inhibition rate were fitted using Prism 8 four-parameters method, and the IC50 value was calculated.
pIC50: −log10 of the molar value.

compoundString | pIC50
C#Cc1c(F)ccc2cc(O)cc(-c3nc4c5c(nc(OCC6(CO)CC6)nc5c3F)N3C[C@H]5CC[C@H](N5)[C@H]3[C@H](C)O4)c12 | 7.41
